B1: 6NMW (parent)
chain: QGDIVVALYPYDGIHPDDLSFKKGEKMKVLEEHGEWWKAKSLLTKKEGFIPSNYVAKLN

Variants of: B1
Test: folding stability dG (cDNA display proteolysis); higher = more stable
Conditions: PBS, room temperature
readout label: folding stability dG

// worked examples, folding stability dG included
E47G :: 1.26 kcal/mol
I50V :: 2.59 kcal/mol

Supply folding stability dG value. Item: `L30V`
2.34 kcal/mol

Report folding stability dG for `L42K`
0.463 kcal/mol

Provide measured folding stability dG value, entry: `Y9W`
3.66 kcal/mol

Given `G34L` , respond with its folding stability dG.
1.52 kcal/mol

Check the records and state folding stability dG for `I50P`
-0.401 kcal/mol

Retrieve folding stability dG measured for `D12W` and print it.
3.78 kcal/mol

Given the variant `E25C` , write its reported folding stability dG.
1.3 kcal/mol

Fill in reported folding stability dG for this entry: `F21M`
1.22 kcal/mol

For the variant `W37H` , give its reported folding stability dG.
2.59 kcal/mol

Complete the entry with folding stability dG for `F21V`
1.74 kcal/mol

Return reported folding stability dG. Input variant: `K46E`
2.94 kcal/mol

Write down folding stability dG measured for item `K26E`
2.52 kcal/mol

For the variant `N59M` , report folding stability dG.
3.64 kcal/mol

Please report folding stability dG for the following variant: `W37T`
2.67 kcal/mol

Look up folding stability dG of `H15Q` and report it.
3.03 kcal/mol
